Ref: PubChem BioAssay

- test_protocol: LAP4-GFP expression modulators in yeast, confirmation, cell-based, cherry picks, flow cytometry, mother/daughter gates (AID 2271);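 note: ratio of sample to DMSO plate mean so 100% equals DMSO level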
- test_parameters: S. cerevisiae LAP4-GFP strain, 3 h, at 10 µM, stronger effect = higher value, 100 means same as DMSO control
Could you please report measured GFP response relative to DMSO for the items listed next?
Answers are plain numbers, in %.

- O=C(NC(=S)NNC(=O)c1cnccn1)c1ccc(F)cc1: 259
- COCc1cc(=O)[nH]c(SCCS(=O)(=O)c2ccc(Cl)cc2Cl)n1: 102
- CCC(CC)C(=O)Nc1cccc(/C(C)=N/NC(=O)c2ccccc2Cl)c1: 99.8

Quick batch: GFP response relative to DMSO for everything below.
1. Brc1cc(Br)c2nc(-c3cccs3)ccc2c1
2. O=C(Nc1ccccc1O)c1ccccc1O
3. O=C(O)c1ccc(SCc2cnc(Cl)s2)cc1

1. 99.5
2. 96.5
3. 116
